Assay: Ion-pairing screening using gentamicin API
Type: physicochemical
Design: key: +++: + details qualitative observations of the amount of solid formed; ++: + details qualitative observations of the amount of solid formed; + details qualitative observations of the amount of solid formed; − details no solids formed
Settings: gentamicin API mixed with IP in water
PROPERTY: Precipitation

CCCCCC(=O)[O-].[Na+] [Sodium Hexanoate, Sodium hexanoate]; −
CCCCCCCC/C=C\CCCCCCCC(=O)[O-].[Na+] [Sodium Oleate, sodium oleate]; −
CCCCCCCCCCCCc1ccc(S(=O)(=O)[O-])cc1.[Na+] [Sodium Dodecylbenzenesulfonate, sodium dodecylbenezenesulfonate]; +++
CCCCCCCCCCS(=O)(=O)[O-].[Na+] [Sodium 1-Decanesulfonate, sodium 1-decanesulfonate]; +++
O=S(=O)([O-])c1ccc2ccccc2c1.[Na+] [Sodium 2-Naphthalenesulfonate, sodium 2-naphthalenesulfonate]; ++
O=S(=O)([O-])CCS(=O)(=O)[O-].[Na+].[Na+] [Sodium 1,2-Ethanedisulfonate, sodium 1,2-ethanesulfonate]; −

Please turn your attention to the following entry.
Indicate its recorded Precipitation; the compound in question is CCCCCCCCCCCCCC(=O)[O-].[Na+] [Sodium Myristate, sodium myristate]
−

From: patent US12357582B2
